Measured values drawn from ChEMBL document CHEMBL4350955 for this set.

Target: Arachidonate 5-lipoxygenase-activating protein (Homo sapiens) (UniProt P20292)
Sequence (whole entry): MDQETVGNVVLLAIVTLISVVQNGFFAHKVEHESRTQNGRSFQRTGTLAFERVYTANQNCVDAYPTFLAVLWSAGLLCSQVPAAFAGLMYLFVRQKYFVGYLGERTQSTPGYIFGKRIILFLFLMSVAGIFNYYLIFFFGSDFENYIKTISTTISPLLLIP
Assay: Inhibition of FLAP in human whole blood assessed as reduction in calcium ionophore-stimulated LTB4 production preincubated for 30 mins followed by calcium ionophore stimulation and measured after 20 mins by EIA
Format: tissue-based
Quantity kind: fpIC50

- Compound: "Cc1cc(-c2ccc(C(=O)[C@@H]3CCCC[C@H]3C(=O)Nc3cn(C)nc3C)cc2)n[nH]1"
  Quantity kind: "fpIC50"
  Observed value: 8.1
- Compound: "Cc1cc(-c2ccc(C(=O)[C@@H]3CCCC[C@H]3C(=O)Nc3cn(C)nc3C(N)=O)c(F)c2)[nH]n1"
  Quantity kind: "fpIC50"
  Observed value: 8.3
- Compound: "Cn1cc(NC(=O)[C@@H]2C[C@@H]3C[C@@H]3C[C@H]2C(=O)c2ccc(-c3cc[nH]n3)cc2)c(C(F)(F)F)n1"
  Quantity kind: "fpIC50"
  Observed value: 9
- Compound: "Cc1nn(C)cc1NC(=O)[C@@H]1CCCC[C@H]1C(=O)c1ccc(-c2ccnn2C)cc1 (racemic)"
  Quantity kind: "fpIC50"
  Observed value: 5.1
- Compound: "Cc1nn(C)cc1NC(=O)[C@@H]1CCCC[C@H]1C(=O)c1ccc(-c2cc[nH]n2)cc1F (racemic)"
  Quantity kind: "fpIC50"
  Observed value: 8
- Compound: "Cc1nn(C)cc1NC(=O)[C@@H]1CCCC[C@H]1C(=O)c1ccc(-c2cc[nH]n2)cc1"
  Quantity kind: "fpIC50"
  Observed value: 7.4
- Compound: "Cc1cc(-c2ccc(C(=O)[C@@H]3CCCC[C@H]3C(=O)Nc3cn(C)nc3C(N)=O)cc2)[nH]n1"
  Quantity kind: "fpIC50"
  Observed value: 7.9
- Compound: "Cc1nn(C)cc1N(C)C(=O)[C@@H]1CCCC[C@H]1C(=O)c1ccc(-c2cc[nH]n2)cc1"
  Quantity kind: "fpIC50"
  Observed value: 7.5
- Compound: "O=C(NCCc1ccccn1)[C@@H]1CCCC[C@H]1C(=O)c1ccc(-c2cc[nH]n2)cc1"
  Quantity kind: "fpIC50"
  Observed value: 6.7
- Compound: "Cn1cc(NC(=O)[C@@H]2CCCC[C@H]2C(=O)c2ccc(-c3cc[nH]n3)cc2)c(C(F)(F)F)n1"
  Quantity kind: "fpIC50"
  Observed value: 8.5
- Compound: "Cc1cc(-c2ccc(C(=O)[C@@H]3CCCC[C@H]3C(=O)Nc3cn(C)nc3C(F)F)cc2)n[nH]1"
  Quantity kind: "fpIC50"
  Observed value: 8.5
- Compound: "Cc1nn(C)cc1NC(=O)[C@@H]1[C@H]2CC[C@H](CC2)[C@H]1C(=O)c1ccc(-c2cc[nH]n2)cc1F (racemic)"
  Quantity kind: "fpIC50"
  Observed value: 7.1

====

Experiment: Volume of distribution at steady state in po or iv dosed Sprague-Dawley rat
Assay type: ADME, organism-based
Conditions: in vivo, read-out: Vdss
Quantity kind: Vd (L/kg)

1 = Cn1ncc(NC(=O)[C@@H]2CCCC[C@H]2C(=O)c2ccc(-c3cc[nH]n3)cc2)c1C(F)(F)F
2 = Cc1cc(-c2ccc(C(=O)[C@@H]3CCCC[C@H]3C(=O)Nc3cn(C)nc3C(N)=O)cc2)n[nH]1
Which has the higher Vd, 1 or 2 ? Refer to your chosen item by its label in the answer.
1

====

Assay: physchem
Conditions: phosphate buffer, pH 7.4
Description: Aqueous solubility in pH 7.4 phosphate buffer after 24 hrs by UPLC/MS/MS analysis
Quantity kind: solubility at 24 h (µM)

1 = Cn1cc(NC(=O)[C@@H]2C[C@@H]3C[C@@H]3C[C@H]2C(=O)c2ccc(-c3cc[nH]n3)cc2)c(C(F)(F)F)n1
2 = Cn1ncc(NC(=O)[C@@H]2CCCC[C@H]2C(=O)c2ccc(-c3cc[nH]n3)cc2)c1C(F)(F)F
Lower value for measured solubility at 24 h? Options: 1 , 2 Answer = label.
1
(1: 27 µM, 2: 80 µM)

====

Assay: Clearance in Beagle dog at 0.004 to 0.1 umol/kg, iv or 0.1 to 1 umol/kg, po via gavage measured up to 79 hrs
Assay type: ADME, organism-based, Canis lupus familiaris
Conditions: in vivo
Quantity kind: clearance (L/h/kg)
Numbers only here, please. The scale is L/h/kg.

The compound `Cc1cc(-c2ccc(C(=O)[C@@H]3CCCC[C@H]3C(=O)Nc3cn(C)nc3C)cc2)n[nH]1` showed clearance equal to 0.2

====

Experiment: Distribution coefficient between octanol and sodium phosphate buffer, logD of the compound in pH 7.4 buffer by LC-MS/MS-based shake flask method
Quantity kind: logD

Consider the worked cases shown below.
- Molecule: "Cc1cc(-c2ccc(C(=O)[C@@H]3CCCC[C@H]3C(=O)Nc3cn(C)nc3C#N)cc2)n[nH]1"
  logD: 3.5
- Molecule: "Cc1cc(-c2ccc3c([C@@H]4C[C@H]5C[C@H]5C[C@H]4C(=O)Nc4cn(C)nc4C(N)=O)noc3c2)n[nH]1"
  logD: 3.5
- Molecule: "Cc1c[nH]nc1-c1ccc(C(=O)[C@@H]2CCCC[C@H]2C(=O)Nc2cn(C)nc2C)cc1 (racemic)"
  logD: 3.1
- Molecule: "Cc1nn(C)cc1NC(=O)[C@@H]1CCCC[C@H]1C(=O)c1ccc(-c2ccccn2)cc1 (racemic)"
  logD: 2.8
- Molecule: "Cc1cc(-c2ccc(C(=O)[C@@H]3CCCC[C@H]3C(=O)Nc3cn(C)nc3C(N)=O)c(F)c2)[nH]n1"
  logD: 3.5

P = Cc1nn(C)cc1NC(=O)[C@@H]1CCCC[C@H]1C(=O)c1ccc(-c2cc[nH]n2)cc1 (racemic)
Q = Cc1nn(C)cc1NC(=O)[C@@H]1[C@H]2CC[C@H](CC2)[C@H]1C(=O)c1ccc(-c2cc[nH]n2)cc1F (racemic)
Short answer wanted: higher logD, P or Q ? Reply briefly: the label of your chosen item.
Q
(Q: 4, P: 2.6)

====

Experiment: Distribution coefficient between octanol and sodium phosphate buffer, logD of the compound in pH 7.4 buffer by LC-MS/MS-based shake flask method
Quantity kind: logD

Consider the worked cases shown below.
- Compound: "Cc1nn(C)cc1NC(=O)[C@@H]1CCCC[C@H]1C(=O)c1ccc(-c2cc[nH]n2)cc1F (racemic)"
  Quantity kind: "logD"
  Observed value: 2.9
- Compound: "CC(C)(O)CNC(=O)c1cnc(NC(=O)[C@@H]2CCCC[C@H]2C(=O)c2ccc(-c3cc[nH]n3)cc2)cn1 (racemic)"
  Quantity kind: "logD"
  Observed value: 3.2

P = O=C(Nc1cnn2cccnc12)[C@@H]1CCCC[C@H]1C(=O)c1ccc(-c2cc[nH]n2)cc1
Q = Cc1nn(C)cc1NC(=O)[C@@H]1CCCC[C@H]1C(=O)c1ccc(-c2cc[nH]n2)nc1 (racemic)
Of P and Q , whose reported logD is numerically smaller? Returns: label corresponding to the selected item.
Q
(Q: 1.8, P: 2.9)

====

Biological target: Arachidonate 5-lipoxygenase-activating protein (Homo sapiens, UniProt P20292)
Assay: Inhibition of FLAP in human whole blood assessed as reduction in calcium ionophore-stimulated LTB4 production preincubated for 30 mins followed by calcium ionophore stimulation and measured after 20 mins by EIA
Type: tissue-based
Quantity kind: IC50 (nM)

- Molecule: "Cc1cc(-c2ccc(C(=O)[C@@H]3CCCC[C@H]3C(=O)Nc3cn(C)nc3C(F)F)cc2)n[nH]1"
  Target or system: "Arachidonate 5-lipoxygenase-activating protein (Homo sapiens, UniProt P20292)"
  Unit spec: "nM"
  IC50: 63.1
- Molecule: "Cc1nn(C)cc1NC(=O)[C@@H]1CCCC[C@H]1C(=O)c1ccc(-c2ccnn2C)cc1 (racemic)"
  Target or system: "Arachidonate 5-lipoxygenase-activating protein (Homo sapiens, UniProt P20292)"
  Unit spec: "nM"
  IC50: 31600
- Molecule: "Cc1cnn(-c2ccc(C(=O)[C@@H]3CCCC[C@H]3C(=O)Nc3cccc(C(N)=O)c3)cc2)c1 (racemic)"
  Target or system: "Arachidonate 5-lipoxygenase-activating protein (Homo sapiens, UniProt P20292)"
  Unit spec: "nM"
  IC50: 2000
- Molecule: "Cc1nn(C)cc1NC(=O)[C@@H]1CCCC[C@H]1C(=O)c1ccc(-c2cc[nH]n2)cc1"
  Target or system: "Arachidonate 5-lipoxygenase-activating protein (Homo sapiens, UniProt P20292)"
  Unit spec: "nM"
  IC50: 200
- Molecule: "Cc1nn(C)cc1NC(=O)[C@@H]1CCCC[C@H]1C(=O)c1ccc(-c2cc[nH]n2)nc1 (racemic)"
  Target or system: "Arachidonate 5-lipoxygenase-activating protein (Homo sapiens, UniProt P20292)"
  Unit spec: "nM"
  IC50: 3980
- Molecule: "Cn1cc(NC(=O)[C@@H]2CCCC[C@H]2C(=O)c2ccc(-c3cc[nH]n3)cc2)c(C(F)(F)F)n1"
  Target or system: "Arachidonate 5-lipoxygenase-activating protein (Homo sapiens, UniProt P20292)"
  Unit spec: "nM"
  IC50: 50.1

a = Cc1nn(C)cc1NC(=O)[C@@H]1CCCC[C@H]1C(=O)c1ccc(-c2cc[nH]n2)cc1F (racemic)
b = Cc1cc(-c2cc[nH]n2)ccc1C(=O)[C@@H]1CCCC[C@H]1C(=O)Nc1cn(C)nc1C (racemic)
For the pair a and b , which entry has the numerically smaller recorded IC50? Give the label of your selection.
a
(a: 63.1 nM, b: 794 nM)
